# reported Emax; entries follow
Biological target: UniProt P30874
Sequence (P30874 whole entry): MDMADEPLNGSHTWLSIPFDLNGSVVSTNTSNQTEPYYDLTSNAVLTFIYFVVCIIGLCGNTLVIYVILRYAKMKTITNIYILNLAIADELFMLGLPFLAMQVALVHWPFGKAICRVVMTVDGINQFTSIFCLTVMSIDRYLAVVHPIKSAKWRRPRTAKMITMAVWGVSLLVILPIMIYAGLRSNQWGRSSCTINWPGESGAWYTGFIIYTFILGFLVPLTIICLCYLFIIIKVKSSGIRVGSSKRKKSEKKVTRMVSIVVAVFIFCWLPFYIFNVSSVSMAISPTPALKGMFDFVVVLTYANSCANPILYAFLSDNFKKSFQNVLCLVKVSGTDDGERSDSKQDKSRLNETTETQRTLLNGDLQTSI
Assay: Hit Hunter cAMP XS+ assay, SST2 activation via Gi (reduction of forskolin-stimulated cAMP)
Format: cell-based
Details: read-out: SST2 (EMax)
Description: A Hit Hunter® cAMP XS+ assay was used to monitor activation of the SST2 and SST5 via the Gi G protein. Cells were pre-stimulated with forskolin to elicit a cAMP response and the potency and efficacy of somatostatin agonists to reduce cAMP was measured. […] Signal was detected through incubation with 20 μL cAMP XS+ED/CL lysis cocktail ([…]; RT) followed by incubation with […] cAMP XS+EA reagent (180 min; RT). […]
*1 amine or outer side, *2 acyl side, *3 side chain or, on linkers, in order; H or OH if unused. Where a SMILES comes first, the peptide text is derived from it. Side-chain parts run from the residue outwards. [ ]: non-standard residue; d: D form. The star is where a group is joined. Ala(piperidin-4-yl) = O=C([C@H](CC1CCN([*:3])CC1)N[*:1])[*:2]; X2 = O=C([C@@H]1C[C@@H](Oc2ccncc2)CN1[*:1])[*:2]; X8 = COc1cc2c(cc1OC)CN([*:1])[C@H](C(=O)[*:2])C2; Ala(piperazin-1-yl) = N[C@@H](CN1CCNCC1)C(=O)O; Phe(4-Cl) = N[C@@H](Cc1ccc(Cl)cc1)C(=O)O; Morpholine(3S-CO) = O=C(O)[C@@H]1COCCN1; Ethylenediamine = C(CN[*:2])N[*:1]; d(hPhe) = N[C@H](CCc1ccccc1)C(=O)O; Hyp = O=C(O)[C@@H]1C[C@@H](O)CN1; hPhe = N[C@@H](CCc1ccccc1)C(=O)O; 3Pal = N[C@@H](Cc1cccnc1)C(=O)O; Cyclohexylmethyl = C1CCC(C*)CC1; Tic = O=C(O)[C@@H]1Cc2ccccc2CN1; Phg = N[C@H](C(=O)O)c1ccccc1; CO = O=C([*:1])[*:2]; Bn = c1ccc(C*)cc1

# COMPOUND, Emax (%)
data = [
    ("O=C1N[C@@H](Cc2ccc(OCc3ccccc3)cc2)C(=O)N2Cc3ccccc3C[C@H]2C(=O)N2CCOC[C@H]2C(=O)N[C@H](CCc2ccccc2)C(=O)N[C@H](Cc2c[nH]c3ccccc23)C(=O)N[C@H]1CC1CCNCC1 [Example 62] (cyclo([Tic][Morpholine(3S-CO)][d(hPhe)][dW][Ala(piperidin-4-yl)]Y(Bn)))", 99.4),
    ("NCCNC(=O)O[C@@H]1C[C@H]2C(=O)N[C@@H](CCc3ccccc3)C(=O)N[C@H](Cc3c[nH]c4ccccc34)C(=O)N[C@@H](CC3CCNCC3)C(=O)N[C@@H](Cc3ccc(OCC4CCCCC4)cc3)C(=O)N[C@@H](Cc3cccnc3)C(=O)N2C1 [Example 54] (cyclo([3Pal][Hyp]([CO-Ethylenediamine])[hPhe][dW][Ala(piperidin-4-yl)]Y(Cyclohexylmethyl)))", 96.2),
    ("NCCNC(=O)O[C@@H]1C[C@H]2C(=O)N[C@H](CCc3ccccc3)C(=O)N[C@@H](Cc3c[nH]c4ccccc34)C(=O)N[C@@H](CN3CCNCC3)C(=O)N[C@@H](Cc3ccc(OCc4ccccc4)cc3)C(=O)N3Cc4ccccc4C[C@H]3C(=O)N2C1 [Example 35] (cyclo([Hyp]([CO-Ethylenediamine])[d(hPhe)]W[Ala(piperazin-1-yl)]Y(Bn)[Tic]))", 27.8),
    ("NCCNC(=O)O[C@@H]1C[C@H]2C(=O)N[C@@H](c3ccccc3)C(=O)N[C@H](Cc3c[nH]c4ccccc34)C(=O)N[C@@H](CC3CCNCC3)C(=O)N[C@@H](Cc3ccc(OCc4ccccc4)cc3)C(=O)N[C@@H](Cc3cccnc3)C(=O)N2C1 [Example 11] (cyclo([3Pal][Hyp]([CO-Ethylenediamine])[Phg][dW][Ala(piperidin-4-yl)]Y(Bn)))", 98),
    ("NCCNC(=O)O[C@@H]1C[C@H]2C(=O)N[C@@H](CCc3ccccc3)C(=O)N[C@H](Cc3c[nH]c4ccccc34)C(=O)N[C@@H](CN3CCNCC3)C(=O)N[C@@H](Cc3ccc(OCc4ccccc4)cc3)C(=O)N[C@@H](Cc3ccc(Cl)cc3)C(=O)N2C1 [Example 51] (cyclo([Hyp]([CO-Ethylenediamine])[hPhe][dW][Ala(piperazin-1-yl)]Y(Bn)[Phe(4-Cl)]))", 100),
    ("NCCNC(=O)O[C@@H]1C[C@H]2C(=O)N[C@@H](CCc3ccccc3)C(=O)N[C@@H](Cc3c[nH]c4ccccc34)C(=O)N[C@@H](CN3CCNCC3)C(=O)N[C@@H](Cc3ccc(OCc4ccccc4)cc3)C(=O)N3Cc4ccccc4C[C@H]3C(=O)N2C1 [Example 36] (cyclo([Hyp]([CO-Ethylenediamine])[hPhe]W[Ala(piperazin-1-yl)]Y(Bn)[Tic]))", 63.4),
    ("O=C1N[C@@H](Cc2ccc(OCc3ccccc3)cc2)C(=O)N[C@@H](Cc2cccnc2)C(=O)N2C[C@H](Oc3ccncc3)C[C@H]2C(=O)N[C@H](CCc2ccccc2)C(=O)N[C@@H](Cc2c[nH]c3ccccc23)C(=O)N[C@H]1CC1CCNCC1 [Example 24] (cyclo([3Pal][X2][d(hPhe)]W[Ala(piperidin-4-yl)]Y(Bn)))", 46.8),
    ("COc1cc2c(cc1OC)CN1C(=O)[C@H](Cc3ccc(OCc4ccccc4)cc3)NC(=O)[C@H](CC3CCNCC3)NC(=O)[C@@H](Cc3c[nH]c4ccccc34)NC(=O)[C@H](CCc3ccccc3)NC(=O)[C@@H]3C[C@@H](OC(=O)NCCN)CN3C(=O)[C@@H]1C2 [Example 66] (cyclo([Hyp]([CO-Ethylenediamine])[hPhe][dW][Ala(piperidin-4-yl)]Y(Bn)[X8]))", 51.1),
    ("NCCNC(=O)O[C@@H]1C[C@H]2C(=O)N[C@@H](c3ccccc3)C(=O)N[C@H](Cc3c[nH]c4ccccc34)C(=O)N[C@@H](CC3CCNCC3)C(=O)N[C@@H](Cc3ccc(OCc4ccccc4)cc3)C(=O)N[C@@H](Cc3ccc(Cl)cc3)C(=O)N2C1 [Example 8] (cyclo([Hyp]([CO-Ethylenediamine])[Phg][dW][Ala(piperidin-4-yl)]Y(Bn)[Phe(4-Cl)]))", 101),
    ("O=C1N[C@@H](Cc2cccnc2)C(=O)N2C[C@H](Oc3ccncc3)C[C@H]2C(=O)N[C@@H](CCc2ccccc2)C(=O)N[C@H](Cc2c[nH]c3ccccc23)C(=O)N[C@@H](CC2CCNCC2)C(=O)N[C@H]1Cc1ccc(OCc2ccccc2)cc1 [Example 22] (cyclo([3Pal][X2][hPhe][dW][Ala(piperidin-4-yl)]Y(Bn)))", 100),
    ("NCCNC(=O)O[C@@H]1C[C@H]2C(=O)N[C@H](CCc3ccccc3)C(=O)N[C@H](Cc3c[nH]c4ccccc34)C(=O)N[C@@H](CN3CCNCC3)C(=O)N[C@@H](Cc3ccc(OCc4ccccc4)cc3)C(=O)N[C@@H](Cc3cccnc3)C(=O)N2C1 [Example 16] (cyclo([3Pal][Hyp]([CO-Ethylenediamine])[d(hPhe)][dW][Ala(piperazin-1-yl)]Y(Bn)))", 79.5),
]

Where do the numbers come from? From patent US11987648B2.
